# assayed_target: recombinant human VAP-1 (Homo sapiens, UniProt Q16853)
# Construct: purchased R&D systems
# Sequence (Q16853 whole entry): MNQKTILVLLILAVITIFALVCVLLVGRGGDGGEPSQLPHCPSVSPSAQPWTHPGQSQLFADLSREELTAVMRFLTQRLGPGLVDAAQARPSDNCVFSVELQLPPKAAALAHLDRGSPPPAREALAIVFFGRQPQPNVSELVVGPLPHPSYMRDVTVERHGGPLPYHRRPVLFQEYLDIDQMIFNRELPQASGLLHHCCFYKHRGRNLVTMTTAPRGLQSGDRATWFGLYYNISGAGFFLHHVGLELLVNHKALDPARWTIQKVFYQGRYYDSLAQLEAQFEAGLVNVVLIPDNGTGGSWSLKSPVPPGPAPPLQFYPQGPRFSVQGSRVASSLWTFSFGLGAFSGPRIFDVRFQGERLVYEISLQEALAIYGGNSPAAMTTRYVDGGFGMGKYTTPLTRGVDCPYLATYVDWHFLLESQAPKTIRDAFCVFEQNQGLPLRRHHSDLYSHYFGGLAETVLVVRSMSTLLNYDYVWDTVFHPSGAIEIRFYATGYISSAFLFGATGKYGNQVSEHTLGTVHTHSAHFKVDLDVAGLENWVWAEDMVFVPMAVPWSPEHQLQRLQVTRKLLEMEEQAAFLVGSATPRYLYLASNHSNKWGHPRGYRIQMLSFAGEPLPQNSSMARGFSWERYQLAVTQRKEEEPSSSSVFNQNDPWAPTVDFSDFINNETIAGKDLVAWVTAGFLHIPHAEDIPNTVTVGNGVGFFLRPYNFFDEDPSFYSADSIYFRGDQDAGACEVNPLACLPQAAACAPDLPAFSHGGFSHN
# experiment_description: Activity on recombinant human VAP-1, Amplex Red HRP-coupled hydrogen peroxide assay, benzylamine substrate
# Format: biochemical
# test_parameters: recombinant human VAP-1, benzylamine substrate; read-out: Inhibitory Activity (IC50, nM) human VAP-1
Where a name gives a salt, the structure may show the parent alone.
metric_name: IC50 (nM)

>  <compound>
NC/C(=C\F)Cn1ncn(-c2cccc(-c3ccc(-c4ccon4)cc3)n2)c1=O [Example 176]

>  <IC50, nM>
0.83

$$$$
>  <compound>
CN(C)c1ccc(/C=C/c2cccc(-n3cnn(C/C(=C/F)CN)c3=O)n2)cc1 [Example 239, hydrochloride]

>  <IC50, nM>
1.6

$$$$
>  <compound>
CC(=O)Nc1nc2cc(-c3cnc(-n4cnn(C/C(=C/F)CN)c4=O)cn3)ccc2s1 [Example 225]

>  <IC50, nM>
1

$$$$
>  <compound>
NC/C(=C\F)Cn1ncn(-c2cccc(-c3ccc(-c4cnon4)cc3)n2)c1=O [Example 177, hydrochloride]

>  <IC50, nM>
0.5

$$$$
>  <compound>
Cc1cc(-c2ccc(N3CCNCC3)nc2)cnc1-n1cnn(C/C(=C/F)CN)c1=O [Example 259]

>  <IC50, nM>
1.4

$$$$

I = Cc1cc(-n2cnn(C/C(=C/F)CN)c2=O)ncc1-c1ccc2c(c1)OCO2 [Example 159]
II = CC(=O)Nc1nc(Cc2ccc(-n3cnn(C/C(=C/F)CN)c3=O)cc2)cs1 [Example 235, hydrochloride]
// which entry has the larger IC50 value, I or II ? Please reply using the label of the selected record.
II
(II: 0.43 nM, I: 0.21 nM)

----------
# assayed_target: recombinant human DAO (diamine oxidase) (Homo sapiens)
# Construct: purchased R&D systems
# Sequence (P19801 20-751): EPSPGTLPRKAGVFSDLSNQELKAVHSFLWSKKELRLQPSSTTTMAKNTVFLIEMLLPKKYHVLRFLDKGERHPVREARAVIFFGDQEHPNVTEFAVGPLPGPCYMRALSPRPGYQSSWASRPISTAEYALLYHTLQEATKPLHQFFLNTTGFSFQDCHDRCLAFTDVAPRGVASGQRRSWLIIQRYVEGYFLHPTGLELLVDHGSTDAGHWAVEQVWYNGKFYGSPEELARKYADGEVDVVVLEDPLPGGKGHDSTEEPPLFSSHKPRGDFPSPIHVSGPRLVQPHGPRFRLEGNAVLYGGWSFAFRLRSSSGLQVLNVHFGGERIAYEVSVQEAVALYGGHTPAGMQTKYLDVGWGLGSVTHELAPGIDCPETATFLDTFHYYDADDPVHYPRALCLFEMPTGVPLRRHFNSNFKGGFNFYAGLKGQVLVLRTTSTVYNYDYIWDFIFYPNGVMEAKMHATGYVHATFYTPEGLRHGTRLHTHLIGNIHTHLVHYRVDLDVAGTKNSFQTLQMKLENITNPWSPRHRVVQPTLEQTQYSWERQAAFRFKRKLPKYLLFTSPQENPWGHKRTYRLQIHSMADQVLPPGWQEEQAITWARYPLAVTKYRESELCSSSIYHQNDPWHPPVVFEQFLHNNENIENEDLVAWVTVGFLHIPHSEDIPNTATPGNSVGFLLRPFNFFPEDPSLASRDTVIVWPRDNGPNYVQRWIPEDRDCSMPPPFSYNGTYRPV
# experiment_description: Activity on recombinant human DAO, Amplex Red method, 1 mM putrescine substrate
# Type: biochemical
# test_parameters: recombinant human DAO, 1 mM putrescine; * = between 10 and 100 nM, ** = between 300 and 1000 nM; read-out: Inhibitory Activity (IC50, nM) DAO
Counter-ions that a name gives are not always drawn.
metric_name: IC50 (nM)

Example cases with answers are listed next.
>  <compound>
NC/C(=C\F)Cn1ncn(-c2ccc(-c3ccc4nonc4c3)cc2F)c1=O [Example 46, hydrochloride]

>  <number>
0.76

$$$$
>  <compound>
Cc1cc(-c2ccc(S(C)(=O)=O)cc2)cnc1-n1cnn(C/C(=C/F)CN)c1=O [Example 133, hydrochloride]

>  <number>
220

$$$$
>  <compound>
Cc1ncc(-c2cccc(-n3cnn(C/C(=C/F)CN)c3=O)c2)cn1 [Example 91, hydrochloride]

>  <number>
13

$$$$

I = NC/C(=C/F)Cn1ncn(-c2ccc(Br)cn2)c1=O [Example 29, hydrochloride]
II = CS(=O)(=O)c1ccc(-c2cccc(-c3cccc(-n4cnn(C/C(=C/F)CN)c4=O)c3)c2)cc1 [Example 67]
// which entry has the larger IC50 value, I or II ? Please reply using the label of the selected record.
I

----------
# Lookup of reported IC50 keyed by entry
# assayed_target: recombinant human MAO-B (monoamine oxidase-B) (Homo sapiens)
# Construct: purchased Sigma-Aldrich
# Sequence (P27338 whole entry): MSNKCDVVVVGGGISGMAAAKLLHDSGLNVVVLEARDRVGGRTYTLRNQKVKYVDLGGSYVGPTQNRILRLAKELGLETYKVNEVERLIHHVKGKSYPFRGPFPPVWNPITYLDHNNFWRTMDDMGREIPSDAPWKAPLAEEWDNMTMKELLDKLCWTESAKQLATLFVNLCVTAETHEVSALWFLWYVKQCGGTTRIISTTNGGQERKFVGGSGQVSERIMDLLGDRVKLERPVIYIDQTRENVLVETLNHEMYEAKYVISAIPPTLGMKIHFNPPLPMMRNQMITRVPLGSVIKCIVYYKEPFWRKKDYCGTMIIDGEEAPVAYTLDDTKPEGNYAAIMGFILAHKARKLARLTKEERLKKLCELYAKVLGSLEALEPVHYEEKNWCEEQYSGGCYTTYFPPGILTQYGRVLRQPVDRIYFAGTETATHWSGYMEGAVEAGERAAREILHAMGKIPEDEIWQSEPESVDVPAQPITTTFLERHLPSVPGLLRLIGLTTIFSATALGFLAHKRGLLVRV
# experiment_description: Activity on recombinant human MAO-B, Amplex Red method, 1 mM benzylamine substrate
# Assay type: biochemical
# test_parameters: 1 mM benzylamine substrate, read-out: Inhibitory Activity (IC50, nM) MAO-B
Structures can show the parent of a compound that is named as a salt.

Example cases with answers are listed next.
>  <compound>
CN1CCOc2cc(-c3cccc(-n4cnn(C/C(=C/F)CN)c4=O)n3)ccc21 [Example 202, hydrochloride]

>  <IC50>
1300 nM

$$$$
>  <compound>
CC(=O)Nc1nc(Cc2ccc(-n3cnn(C/C(=C/F)CN)c3=O)cc2)cs1 [Example 235, hydrochloride]

>  <IC50>
2580 nM

$$$$
>  <compound>
COc1ccc(C#Cc2cccc(-n3cnn(C/C(=C/F)CN)c3=O)n2)cn1 [Example 247]

>  <IC50>
4300 nM

$$$$
>  <compound>
Cc1ccc(-c2ccc3c(c2)OCO3)nc1-n1cnn(C/C(=C/F)CN)c1=O [Example 213, hydrochloride]

>  <IC50>
> 10000 nM

$$$$
>  <compound>
CN(C)c1ccc(C#Cc2cccc(-n3cnn(C/C(=C/F)CN)c3=O)n2)cn1 [Example 248]

>  <IC50>
> 10000 nM

$$$$
>  <compound>
Cn1cncc1C#Cc1cccc(-n2cnn(C/C(=C/F)CN)c2=O)n1 [Example 256]

>  <IC50>
> 10000 nM

$$$$

Which measured IC50 value corresponds to NC/C(=C\F)Cn1ncn(-c2cccc(/C=C/c3cnc4[nH]c(=O)oc4c3)n2)c1=O [Example 242, hydrochloride] ?
> 10000 nM

Input CS(=O)(=O)c1ccc(-c2ccnc(-n3cnn(C/C(=C/F)CN)c3=O)c2)cc1 [Example 165]
> 10000 nM

Attribution: patent US11492335B2
